- STUDY_TARGET: T1, AFP158/HLA-A*02:01 complex (human)
- T1 construct: flowed as analyte in SPR
- RUN_DESCRIPTION: SPR, crude scFv captured, pMHC analyte;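 note: complex injected at several concentrations over the chip, association phase then running buffer for dissociation, KD derived from on- and off-rates computed from both curves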
In this section, each of the binders is paired with its reported pKd.
Please note pKd is a logarithmic value: minus log10 of concentration in mol/L. Answer with that number alone.

Would you please look over these solved cases?
{"BINDER": "AS170036 VL1VH1-57M98I108D (scFv, also called 80-AS170036 VL1VH1-57M98I108D) scFv: QSALTQPRSVSGSPGQSVTISCAGTSSDVGSENYVSWYQQHPGKAPKLMIYQVNKRASGVPDRFSGSKSGNTASLTISGLQAEDEADYYCASYRSSDINIVFGGGTKLTVLGGGGSGGGGSGGGGSEVQLVESGGGLVQPGGSLRLSCAASGFTFSSYAMSWVRQAPGKGLEWVSTINSGTGMPYYADSVKGRFTISRDNSKNTLYLQMNSLRAEDTAVYYCAKNFFDGSWFLDPPAMDYWGQGTLVTVSSHHHHHH", "pKd": 7.96}
{"BINDER": "AS170036 VL1VH1-57K98Q108D (scFv, also called 74-AS170036 VL1VH1-57K98Q108D) scFv: QSALTQPRSVSGSPGQSVTISCAGTSSDVGSENYVSWYQQHPGKAPKLMIYQVNKRASGVPDRFSGSKSGNTASLTISGLQAEDEADYYCASYRSSDQNIVFGGGTKLTVLGGGGSGGGGSGGGGSEVQLVESGGGLVQPGGSLRLSCAASGFTFSSYAMSWVRQAPGKGLEWVSTINSGTGKPYYADSVKGRFTISRDNSKNTLYLQMNSLRAEDTAVYYCAKNFFDGSWFLDPPAMDYWGQGTLVTVSSHHHHHH", "pKd": 8.42}
{"BINDER": "AS170036 VL1VH1-57K98Q108A (scFv, also called 73-AS170036 VL1VH1-57K98Q108A) scFv: QSALTQPRSVSGSPGQSVTISCAGTSSDVGSENYVSWYQQHPGKAPKLMIYQVNKRASGVPDRFSGSKSGNTASLTISGLQAEDEADYYCASYRSSDQNIVFGGGTKLTVLGGGGSGGGGSGGGGSEVQLVESGGGLVQPGGSLRLSCAASGFTFSSYAMSWVRQAPGKGLEWVSTINSGTGKPYYADSVKGRFTISRDNSKNTLYLQMNSLRAEDTAVYYCAKNFFDGSWFLAPPAMDYWGQGTLVTVSSHHHHHH", "pKd": 8.55}

Below: the item to evaluate.
What does the record list as pKd for AS170036 VL1VH1-56Y98F108S (scFv, also called 42-AS170036 VL1VH1-56Y98F108S) scFv: QSALTQPRSVSGSPGQSVTISCAGTSSDVGSENYVSWYQQHPGKAPKLMIYQVNKRASGVPDRFSGSKSGNTASLTISGLQAEDEADYYCASYRSSDFNIVFGGGTKLTVLGGGGSGGGGSGGGGSEVQLVESGGGLVQPGGSLRLSCAASGFTFSSYAMSWVRQAPGKGLEWVSTINSGTYSPYYADSVKGRFTISRDNSKNTLYLQMNSLRAEDTAVYYCAKNFFDGSWFLSPPAMDYWGQGTLVTVSSHHHHHH ? 8.40
